run_description: The compound was tested for cytotoxic activity against KB cell line by clonogenic cell survival assay.
Format: cell-based
assay_conditions: human, KB cells; read-out: LD50 (the source's name)
test_readout: CC50 (µM)
Answers are plain numbers, in µM.

Would you please look over these solved cases?
COc1cc([C@@H]2c3cc4c(cc3[C@@H](Nc3ccc([N+](=O)[O-])cc3)[C@H]3COC(=O)[C@H]23)OCO4)cc(OC)c1O
1
COc1cc([C@@H]2c3cc4c(cc3[C@@H](O[C@@H]3O[C@@H]5CO[C@@H](C)O[C@H]5[C@H](O)[C@H]3O)[C@H]3COC(=O)[C@H]23)OCO4)cc(OC)c1O [ETOPOSIDE]
20

Now examine the next entry.
Find the recorded CC50 belonging to COc1cc([C@@H]2c3cc4c(cc3[C@@H](Nc3ccc(-c5nc6ccccc6[nH]5)cc3)[C@H]3COC(=O)[C@H]23)OCO4)cc(OC)c1O and report it.
0.2
